- measurement-target: Cbl (aa49-434) (Homo sapiens)
- Construct: Cbl (aa49-434, in-house); made in house
- Sequence (P22681 49-434): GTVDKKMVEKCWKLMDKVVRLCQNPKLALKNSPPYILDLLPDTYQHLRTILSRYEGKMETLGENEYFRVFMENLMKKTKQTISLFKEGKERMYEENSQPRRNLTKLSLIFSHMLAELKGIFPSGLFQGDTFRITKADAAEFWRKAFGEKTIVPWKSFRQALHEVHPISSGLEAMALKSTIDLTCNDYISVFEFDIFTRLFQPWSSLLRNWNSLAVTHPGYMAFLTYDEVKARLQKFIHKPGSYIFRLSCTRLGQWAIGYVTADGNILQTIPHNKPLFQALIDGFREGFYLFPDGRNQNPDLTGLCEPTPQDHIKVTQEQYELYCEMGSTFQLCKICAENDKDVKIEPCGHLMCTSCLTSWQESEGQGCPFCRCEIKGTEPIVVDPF
- experiment-notes: Co-expressed Cbl with BirA biochemical assay (CBL/E2-Ub binding, HTRF)
- measurement-context: 0.6 nM Cbl co-expressed with BirA, read-out: co-express CBL/E2-Ub-binding assay IC50
parameter: pIC50
pIC50 here is simply -log10 of the concentration when that concentration is written in mol/L.

| compound | parameter | val |
| --- | --- | --- |
| Cn1cnnc1[C@]1(c2cccc(NC(=O)c3cc(CNC4(C)CCC4)cn4c(F)cnc34)c2)C[C@H](CC#N)C1 [Compound A61] | pIC50 | 7.95 |
| C[C@H]1CCCN(Cc2cc(C(=O)Nc3cccc([C@]4(Cc5nncn5C)C[C@H](C#N)C4)c3)nc3c2CCC3(C)C)C1 [Compound C18] | pIC50 | 8.51 |
| C[C@H]1CCCN(Cc2cc(C(=O)Nc3cccc([C@]4(c5nncn5C)C[C@@H](CC#N)C4)c3)n3ncc(Cl)c3c2)C1 [Compound A21] | pIC50 | 7.51 |
| C[C@H]1CCCN(Cc2cc(C(=O)Nc3cccc(C4(Cc5nncn5C)COC4)c3)c3nc(F)cn3c2)C1 [Compound A7] | pIC50 | 7.84 |
| C[C@H]1CCCN(Cc2cc(C(=O)Nc3cccc([C@]4(Cc5nncn5C)C[C@@H](C#N)C4)c3)nc3c(F)c[nH]c23)C1 [Compound B20] | pIC50 | 8.41 |

Q) Value lookup for pIC50; key = C[C@H](NCc1cc(C(=O)Nc2cccc([C@]3(c4nncn4C)C[C@@H](CC#N)C3)c2)nc2c1NCC21CC1)C1CC1 [Compound C36]
A) 8.55

Q) Then C[C@@H]1CN(Cc2cc(C(=O)Nc3cccc([C@]4(c5nncn5C)C[C@@H](C)C4)c3)nc3c2CCC3(C)C)CC[C@@H]1F [Compound C55] ?
A) 8.72

Q) Then C[C@H](NCc1cc(C(=O)Nc2cncc([C@]3(c4nncn4C)C[C@@H](C)C3)c2)nc2c1CCC2(F)F)C1CCC1 [Compound C41] ?
A) 8.15

Q) Then [2H]C([2H])([2H])n1cnnc1[C@]1(c2cccc(NC(=O)c3cc(CNC4(C)CC4)cn4ccnc34)c2)C[C@H](C)C1 [Compound A95] ?
A) 8.47

Q) Then Cn1cnnc1[C@]1(c2cccc(NC(=O)c3cc(CN[C@H]4CCC(F)(F)C4)cn4ccnc34)c2)C[C@H](CC#N)C1 [Compound A23] ?
A) 7.94

Q) Then Cn1cnnc1[C@]1(c2cccc(NC(=O)c3cc(CNC4(C)CC4)c4[nH]cc(F)c4n3)c2)C[C@H](CC#N)C1 [Compound B54] ?
A) 7.92

Q) Then Cn1cnnc1[C@]1(c2cncc(NC(=O)c3cc(CNCC4CCC4)c4c(n3)C(F)(F)CC4)c2)C[C@H](C)C1 [Compound C52] ?
A) 7.83

Q) Then Cn1cnnc1[C@]1(c2cccc(NC(=O)c3cc(CNCC(C)(C)C)cn4ccnc34)c2)C[C@H](CC#N)C1 [Compound A32] ?
A) 8.31

Q) Then Cn1ccc2nc(C(=O)Nc3cccc([C@]4(c5nncn5C)C[C@@H](CC#N)C4)c3)cc(CNC3(C)CCC3)c21 [Compound B56] ?
A) 7.49

Q) Then Cn1cnnc1[C@]1(c2cccc(NC(=O)c3cc(CNCC4CCC4)cn4c(Cl)cnc34)c2)C[C@H](C)C1 [Compound A57] ?
A) 8.74

Q) Then C[C@H](NCc1cc(C(=O)Nc2cncc([C@]3(c4nncn4C)C[C@@H](C)C3)c2)nc2sccc12)C1CCC1 [Compound B42] ?
A) 8.33

Q) Then C[C@@H]1CN(Cc2cc(C(=O)Nc3cccc([C@]4(c5nncn5C)C[C@@H](CC#N)C4)c3)nc3cc[nH]c23)C[C@H](C)C1(F)F [Compound B19] ?
A) 7.11

Q) Then C[C@@H]1CN(Cc2cc(C(=O)Nc3cncc([C@]4(c5nncn5C)C[C@@H](C)C4)c3)nc3c2NCC3(C)C)CC[C@@H]1F [Compound C58] ?
A) 8.49

Q) Then C[C@H]1CCCN(Cc2cc(C(=O)Nc3cccc([C@]4(c5nncn5C)C[C@@H](CC#N)C4)c3)nc3cn[nH]c23)C1 [Compound B8] ?
A) 7.68
